The reported measurements were obtained from PubChem BioAssay (EPA / NIEHS).

assayed system: Cellular tumor antigen p53 (Homo sapiens) (UniProt P04637)
Sequence (P04637 whole entry, looked up): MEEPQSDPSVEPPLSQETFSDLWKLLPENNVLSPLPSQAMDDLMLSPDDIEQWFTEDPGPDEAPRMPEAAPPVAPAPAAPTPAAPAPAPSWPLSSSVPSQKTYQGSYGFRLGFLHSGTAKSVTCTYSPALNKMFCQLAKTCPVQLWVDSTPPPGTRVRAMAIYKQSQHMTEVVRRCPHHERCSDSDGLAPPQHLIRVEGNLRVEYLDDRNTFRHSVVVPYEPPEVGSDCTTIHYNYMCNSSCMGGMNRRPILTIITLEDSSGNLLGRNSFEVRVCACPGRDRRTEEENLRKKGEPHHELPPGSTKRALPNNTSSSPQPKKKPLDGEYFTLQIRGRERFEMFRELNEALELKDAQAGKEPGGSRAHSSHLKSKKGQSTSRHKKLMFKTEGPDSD
method description: TOX21_p53_BLA_p5_ratio: Tox21 HCT-116 p53 Agonism Beta-lactamase Assay, Ratio, Phase 5 (AID 2283599)
Inconclusive results are not listed. Active and inactive are the calls of the source. The calls were made as follows: active = hit-call score of the fitted dose curve at least 0.9, where 1 is the maximum; inconclusive = response in the unintended direction; inactive = score below 0.9.
metric name: AC50

Example entries and their recorded answers appear below.
>>> result_value("CC(C)(C)c1cc(CO)cc(C(C)(C)C)c1O")
"inactive"
>>> result_value("C=CCONC(CCC)=C1C(=O)CC(C)(C)C(C(=O)OC)=C1O")
"inactive"
>>> result_value("Cc1ccc(Cl)cc1N")
"inactive"
>>> result_value("O=C1N=C(O)CN1N=Cc1ccc(-c2ccc([N+](=O)[O-])cc2)o1")
"inactive"
>>> result_value("COc1ccc(OC)c(C(O)CNC(=O)CN)c1 (centres undefined)")
"inactive"
>>> result_value("Cc1cc(C)c(N)c(Cl)c1")
"inactive"

Challenge: For O=C(O)c1ccc2cc(O)ccc2c1 , write its AC50.
Response given: inactive

Challenge: For CSc1ccc2c(c1)C(N1CCN(C)CC1)Cc1ccccc1S2 (centres undefined) , write its AC50.
Response given: inactive

Challenge: For CC1(S(=O)(=O)O)CC(=O)c2ccccc2C1=O (centres undefined) , write its AC50.
Response given: 36.7 µM (active)

Challenge: For COc1ccc2cc(CCC(C)=O)ccc2c1 , write its AC50.
Response given: inactive

Challenge: For CCCCCCCCCCCCCCCCCC[N+](C)(C)C , write its AC50.
Response given: 75 µM (active)

Challenge: For C[N+](C)(C)CCOC(N)=O , write its AC50.
Response given: inactive

Challenge: For CCCCCCCCCCCCCC[N+](C)(C)Cc1ccccc1 , write its AC50.
Response given: 40.8 µM (active)

Challenge: For CCOc1ccc(N=Nc2ccc(N)cc2N)cc1 , write its AC50.
Response given: inactive

Challenge: For CCC(C(=O)OCCN(CC)CC)c1ccccc1 (centres undefined) , write its AC50.
Response given: inactive

====

method description: CCTE_Mundy_HCI_iCellGluta_NOG_NeuronCount: CCTE's Neurite Outgrowth Assay in iCellGluta cells for Neuron Count, Mundy Lab (AID 2284340);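 also: cells fixed about 48 h after compound addition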
Inconclusive results are not listed. Active and inactive are the calls of the source. The calls were made as follows: active = hit-call score of the fitted dose curve at least 0.9, where 1 is the maximum; inconclusive = response in the unintended direction; inactive = score below 0.9.
Just give me one of these, please: active, inactive

>>> label_class("NC(N)=Nc1nc(CSCCC(N)=NS(N)(=O)=O)cs1")
"inactive"
>>> label_class("CN(C)CCC(c1ccc(Cl)cc1)c1ccccn1 (centres undefined)")
"inactive"
>>> label_class("[Cl-].[Cl-].[NH2-].[NH2-].[Pt+4]")
"active"

Attention now turns to another entry.
Challenge: Outcome logged for CC1(C)S[C@@H]2[C@H](NC(=O)[C@H](N)c3ccccc3)C(=O)N2[C@H]1C(=O)O in this assay:
Response given: inactive

====

System: SRY-box transcription factor 17 (SOX17) Protein Expression, Deisenroth Lab, SOX17 (gene 64321)
method description: CCTE_Deisenroth_DEVTOX-GLR_Endo_SOX17: CCTE's DevTox GLR-Endo Assay Evaluation of SRY-box transcription factor 17 (SOX17) Protein Expression, Deisenroth Lab (AID 2284413)
The source made the active and inactive calls. Rule for the calls: active = hit-call score of the fitted dose curve at least 0.9, where 1 is the maximum; inactive = score below 0.9. *1 amine or outer side, *2 acyl side, *3 side chain or, on linkers, in order; H or OH if unused. Where a SMILES comes first, the peptide text is derived from it. Bridges are numbered along the chain shown (N, C = ends). Roman numbers before positions name the chains, in order. [ ]: non-standard residue; d: D form. Actinocin(9to1) = Cc1c2oc3c(C)ccc(C(=O)[*:1])c3nc-2c(C(=O)[*:2])c(N)c1=O; NMeV = CN[C@H](C(=O)O)C(C)C; Sar = CNCC(=O)O
metric name: AC50

>>> result_value("COc1cc2ncnc(Nc3ccc(F)c(Cl)c3)c2cc1OCCCN1CCOCC1")
"5.78 µM (active)"
>>> result_value("O=C(c1ccc(F)cc1)C1CCN(CCn2c(=O)[nH]c3ccccc3c2=O)CC1")
"37.9 µM (active)"

Challenge: For Cc1nc(Nc2ncc(C(=O)Nc3c(C)cccc3Cl)s2)cc(N2CCN(CCO)CC2)n1 , write its AC50.
Response given: 0.633 µM (active)

Challenge: For CC1=C(/C=C/C(C)=C/C=C/C(C)=C\C(=O)O)C(C)(C)CCC1 , write its AC50.
Response given: 0.119 µM (active)

Challenge: For Cc1c2oc3c(C)ccc(C(=O)N[C@@H]4C(=O)N[C@H](C(C)C)C(=O)N5CCC[C@H]5C(=O)N(C)CC(=O)N(C)[C@@H](C(C)C)C(=O)O[C@@H]4C)c3nc-2c(C(=O)N[C@@H]2C(=O)N[C@H](C(C)C)C(=O)N3CCC[C@H]3C(=O)N(C)CC(=O)N(C)[C@@H](C(C)C)C(=O)O[C@@H]2C)c(N)c1=O (I: T[dV]P[Sar][NMeV] / II: T[dV]P[Sar][NMeV]; ester I:1-I:C, II:1-II:C; linker I:N-II:N via Actinocin(9to1)) , write its AC50.
Response given: 4.42e-05 µM (active)

Challenge: For Cc1ccc(NC(=O)c2ccc(CN3CCN(C)CC3)cc2)cc1Nc1nccc(-c2cccnc2)n1 , write its AC50.
Response given: 14.2 µM (active)

Challenge: For CCCCCN=C(N)N/N=C/c1c[nH]c2ccc(OC)cc12 , write its AC50.
Response given: 5.27 µM (active)

Challenge: For O=C1Cc2cc(CCN3CCN(c4nsc5ccccc45)CC3)c(Cl)cc2N1 , write its AC50.
Response given: 3.99 µM (active)

Challenge: For Cc1nc2sccn2c(=O)c1CCN1CCC(=C(c2ccc(F)cc2)c2ccc(F)cc2)CC1 , write its AC50.
Response given: 11 µM (active)

====

method description: ATG_Sox_CIS: Attagene CIS-FACTORIAL HepG2 Assay for human SRY-box transcription factor (SOX) (AID 2282960)
experimental context: HepG2 Attagene cis-factorial SOX reporter, mRNA; actives raise or lower the signal
Protocol: ATG_CIS is a cell-based, multiplexed-readout assay that uses HepG2, a human liver cell line, with measurements taken at 24 hours after chemical dosing in a 24-well plate.ATG_Sox_CIS is one of 52 assay component(s) measured or calculated from the ATG_CIS assay. […] This assay endpoint, ATG_Sox_CIS, was analyzed with bidirectional fitting relative to DMSO as the negative control and baseline of activity. […]
Calls of active or inactive are those of the source. Rule for the calls: active = hit-call score of the fitted dose curve at least 0.9, where 1 is the maximum; inactive = score below 0.9.
Just give me one of these, please: Y = active, N = inactive

Reference set (3 entries):
>>> label_class("CCCCCCCCCCCCCCCCCC[N+](C)(C)C")
"Y"
>>> label_class("CCCN[C@H]1CCc2nc(N)sc2C1")
"N"
>>> label_class("CCCCCCOC(=O)CCCCCCCC(=O)OCCCCCC")
"N"

Challenge: Outcome logged for C1=CCC=C1 in this assay:
Response given: N

Challenge: Outcome logged for CCC(=O)OCc1ccc(OC)cc1 in this assay:
Response given: N

Challenge: Outcome logged for CCC(C)=NO in this assay:
Response given: N

Challenge: Outcome logged for [O-][n+]1ccc(Cl)cc1 in this assay:
Response given: N

Challenge: Outcome logged for CC(=O)CCc1ccccc1 in this assay:
Response given: N

Challenge: Outcome logged for CCOC(=O)c1ccccc1 in this assay:
Response given: N

Challenge: Outcome logged for C=C1CC[C@H]2C[C@@H]1C2(C)C in this assay:
Response given: N

====

assayed system: Cellular tumor antigen p53 (Homo sapiens) (UniProt P04637)
method description: TOX21_p53_BLA_p4_ratio: Tox21 HCT-116 p53 Agonism Beta-lactamase Assay, Ratio, Phase 4 (AID 2283601)
Records with an inconclusive call do not appear. Activity calls are given as the source filed them. How the source made its calls: active means hit-call score of the fitted dose curve at least 0.9, where 1 is the maximum; inconclusive means response in the unintended direction; inactive means score below 0.9.
metric name: AC50

Example entries and their recorded answers appear below.
>>> result_value("CC(COc1ccccc1)N(CCCl)Cc1ccccc1 (centres undefined)")
"inactive"
>>> result_value("NC[C@H]1O[C@H](O[C@H]2[C@H](O)[C@@H](O[C@H]3O[C@H](CO)[C@@H](O)[C@H](N)[C@H]3O)[C@H](N)C[C@@H]2N)[C@H](O)[C@@H](O)[C@@H]1O")
"inactive"
>>> result_value("C=CN1CCCCCC1=O")
"inactive"
>>> result_value("COc1cccc2c1C(=O)c1c(O)c3c(c(O)c1C2=O)C[C@@](O)(C(=O)CO)C[C@@H]3O[C@H]1C[C@H](N)[C@H](O[C@@H]2CCCCO2)[C@H](C)O1")
"7.58 µM (active)"
>>> result_value("CN(C)c1ccc(C2(c3ccc(N(C)C)cc3)OC(=O)c3cc(N(C)C)ccc32)cc1")
"38.5 µM (active)"
>>> result_value("C=C(Nc1ccc(OCC)cc1)Nc1ccc(OCC)cc1")
"inactive"
>>> result_value("COCCCC/C(=N\\OCCN)c1ccc(C(F)(F)F)cc1")
"inactive"
>>> result_value("O=C(NCCN1CCOCC1)c1ccc(Cl)cc1")
"inactive"

Challenge: Lab note: record AC50 of CCOC(=O)COc1ccc2c(C)c(CCN(CC)CC)c(=O)oc2c1 tested on Cellular tumor antigen p53 (Homo sapiens) (UniProt P04637).
Response given: inactive

Challenge: Lab note: record AC50 of CC1=CC(=O)CC(C)(C)C1=O tested on Cellular tumor antigen p53 (Homo sapiens) (UniProt P04637).
Response given: inactive

Challenge: Lab note: record AC50 of CO[C@H]1C[C@@H]2CC[C@@H](C)[C@@](O)(O2)C(=O)C(=O)N2CCCC[C@H]2C(=O)O[C@H]([C@H](C)C[C@@H]2CC[C@@H](OCCO)[C@H](OC)C2)CC(=O)[C@H](C)/C=C(\C)[C@@H](O)[C@@H](OC)C(=O)[C@H](C)C[C@H](C)\C=C/C=C/C=C/1C tested on Cellular tumor antigen p53 (Homo sapiens) (UniProt P04637).
Response given: 23 µM (active)

Challenge: Lab note: record AC50 of CCN(CC)CCOCCOC(=O)C1(c2ccccc2)CCCC1 tested on Cellular tumor antigen p53 (Homo sapiens) (UniProt P04637).
Response given: inactive

Challenge: Lab note: record AC50 of CCCCC(=O)OCC(=O)[C@]1(O)Cc2c(O)c3c(c(O)c2[C@@H](O[C@H]2C[C@H](NC(=O)C(F)(F)F)[C@H](O)[C@H](C)O2)C1)C(=O)c1c(OC)cccc1C3=O tested on Cellular tumor antigen p53 (Homo sapiens) (UniProt P04637).
Response given: 5.24 µM (active)
